Assay notes: qHTS Screen of the MIPE 4.0 Collection Against Ewings Sarcoma (EW8) (AID 1259255); also: nearly all actives have a fitted effect of over 35% in size;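 as to viability: 100% = DMSO-treated cells and 0% = medium-only wells without cells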
Details: EW8 Ewing sarcoma viability, CellTiter-Glo, 48 h; series mostly up to 45.8 µM
Inconclusive results are not listed. Active and inactive are the calls of the source. Calls follow the shape of the dose curve; as a rule, active = well fitted inhibition curve with a large enough effect; inconclusive = small, poorly fitted or top-dose-only effect; inactive = no such curve, though single readings can be large or run the other way.
Outcome field: choose from active, inactive

Please indicate how the test categorized O=C1Nc2ccc(Cl)cc2C(C#CC2CC2)(C(F)(F)F)O1 (stereo not given) .
active

Please indicate how the test categorized C[N+]1(C)[C@@H]2CC(OC(=O)[C@H](CO)c3ccccc3)C[C@H]1[C@H]1O[C@@H]12 (stereo not given in full) .
inactive

Please indicate how the test categorized CC(=O)OC1C(C)OC(Oc2c(-c3ccc(O)cc3)oc3cc(O)cc(O)c3c2=O)C(O)C1OC(C)=O (stereo not given) .
inactive

Please indicate how the test categorized CC(C(=O)O)c1ccc(-c2ccccc2)c(F)c1 (stereo not given) .
inactive

Please indicate how the test categorized Cc1cnc(C(=O)O)c[n+]1[O-] .
inactive

====

Please respond with reported Z-AUC for every item in the list.
Assay notes: qHTS drug screen for cell cycle checkpoint inhibitors in PARPi-resistant BRCA-mutant ovarian cancer cell lines. (AID 1963452)
Details: PEO1/OlaR viability, CellTiter-Glo luminescence, 96 h; measured here: PEO4 Z-AUC; stronger effect = lower value
// print number alone

Supply reported Z-AUC belonging to this compound: CC1(C)CCC2=C(O1)c1ccccc1C(=O)C2=O
0.134

Supply reported Z-AUC belonging to this compound: c1ccc2c(Cc3c[nH]c4ccccc34)c[nH]c2c1
-0.359

Supply reported Z-AUC belonging to this compound: O=C1C[C@@H](c2ccc(O)cc2)Oc2cc(O)cc(O)c21
1.28

Supply reported Z-AUC belonging to this compound: O=C(O)C(O)Cc1ccc(O)c(O)c1 (stereo not drawn)
0.735

Supply reported Z-AUC belonging to this compound: CCCCCCCCCCCC1=C(O)C(=O)C=C(O)C1=O
1.19

Supply reported Z-AUC belonging to this compound: COc1cccc(-c2cc(=O)c3ccccc3o2)c1N
-0.869

Supply reported Z-AUC belonging to this compound: CS(=O)(=O)N(Cc1ccco1)CC(O)Cn1c2ccccc2c2ccccc21 (stereo not drawn)
0.481

Supply reported Z-AUC belonging to this compound: C[C@H](NC(=O)c1sccc1OCc1ccc(Cl)cc1)c1ccccc1
-0.0391

Supply reported Z-AUC belonging to this compound: N[C@@]1(C(=O)O)CS(=O)(=O)[C@H]2[C@H](C(=O)O)[C@H]21
0.235

Supply reported Z-AUC belonging to this compound: CCc1ccc(OCc2ccccc2C(=O)Nc2ccc3nc(C)cc(N)c3c2)cc1
-0.159

Supply reported Z-AUC belonging to this compound: COc1ccc2c(Oc3ccc(NC(=O)c4c(C)n(CC(C)(C)O)n(-c5ccccc5)c4=O)nc3)ccnc2c1
-0.433

Supply reported Z-AUC belonging to this compound: CCn1c(C(=O)N(C2CC2)C2CC2)cc2c3c(ncn3C)c(Nc3cc(C)n(C)n3)nc21
1.3

Supply reported Z-AUC belonging to this compound: CCNc1cc(NC2CCC(O)CC2)nc(Nc2ccc3c(ccn3Cc3ccccc3)c2)n1 (stereo not drawn)
0.72

Supply reported Z-AUC belonging to this compound: COc1cc2ncnc(-n3nc(-c4ccccn4)nc3N)c2cc1OC
0.697

Supply reported Z-AUC belonging to this compound: Clc1ccc(COC(Cn2ccnc2)c2ccc(Cl)cc2Cl)cc1 (stereo not drawn)
0.161

Supply reported Z-AUC belonging to this compound: CC(C)OC(=O)C(C)(C)Oc1ccc(C(=O)c2ccc(Cl)cc2)cc1
0.0191

Supply reported Z-AUC belonging to this compound: COCCOC(=O)C1=C(C)NC2=C(C(=O)CC(c3ccccc3OC)C2)C1c1cccc(O)c1 (stereo not drawn)
0.517

Supply reported Z-AUC belonging to this compound: COc1ccc(-c2coc3cc(O)cc(O)c3c2=O)cc1
1.85

Supply reported Z-AUC belonging to this compound: CS(=O)c1ccc(-c2nc(-c3ccc(F)cc3)c(-c3ccncc3)[nH]2)cc1 (stereo not drawn)
0.786

Supply reported Z-AUC belonging to this compound: C=C1C(=O)[C@@]23C(CC[C@@H]1[C@H]2O)[C@@]12CO[C@]3(O)[C@@H](O)[C@@H]1C(C)(C)CC[C@@H]2O (stereo partly drawn)
-1.08

Supply reported Z-AUC belonging to this compound: CC1=C(/C=C/C(C)=C/C=C/C(C)=C/C(=O)Nc2ccc(O)cc2)C(C)(C)CCC1
0.121

Supply reported Z-AUC belonging to this compound: COc1ccc(-c2nc(N3CCOCC3)c3sc(CN(C)c4ncc(C(=O)NO)cn4)cc3n2)cn1
-1.69

Supply reported Z-AUC belonging to this compound: Clc1ccc(CCC(Cn2ccnc2)Sc2c(Cl)cccc2Cl)cc1 (stereo not drawn)
0.874

Supply reported Z-AUC belonging to this compound: Cc1ccc(F)c(NC(=O)Nc2ccc(-c3cccc4[nH]nc(N)c34)cc2)c1
1.16

Supply reported Z-AUC belonging to this compound: CO[C@H]1C(=O)[C@]2(C)[C@@H](OC)C[C@H]3OC[C@@]3(OC(C)=O)[C@H]2[C@H](OC(=O)c2ccccc2)[C@]2(O)C[C@H](OC(=O)[C@H](O)[C@@H](NC(=O)OC(C)(C)C)c3ccccc3)C(C)=C1C2(C)C
-2.45

Supply reported Z-AUC belonging to this compound: COc1cc2nc(-c3ccc(N4CCN(C)CC4)cc3)nc(NCCN3CCOCC3)c2cc1OC
-0.573

Supply reported Z-AUC belonging to this compound: Cc1cccc(Nc2nc(-c3ccncc3)cs2)c1
0.437

Supply reported Z-AUC belonging to this compound: CC(C)(C)Cn1c(N)nc2ccc(-c3[nH]c(C(C)(C)C)nc3-c3ccc(F)cc3)nc21
-1.15

Supply reported Z-AUC belonging to this compound: COc1ccc2cccc(CCNC(C)=O)c2c1
-0.326

Supply reported Z-AUC belonging to this compound: CC(C)(Cc1ccc2ccccc2c1)NC[C@@H](O)COc1cccc(Cl)c1C#N
0.976

Supply reported Z-AUC belonging to this compound: COc1cc(Nc2ncc(F)c(Nc3ccc4c(n3)NC(=O)C(C)(C)O4)n2)cc(OC)c1OC
1.16

Supply reported Z-AUC belonging to this compound: O=C(O)c1ccccc1C(=O)Nc1ccc(-c2ccccc2)cc1
0.552

Supply reported Z-AUC belonging to this compound: CC1(C)CCC(CN2CCN(c3ccc(C(=O)NS(=O)(=O)c4ccc(NCC5CCOCC5)c([N+](=O)[O-])c4)c(Oc4cnc5[nH]ccc5c4)c3)CC2)=C(c2ccc(Cl)cc2)C1
0.833

Supply reported Z-AUC belonging to this compound: COCCOc1nc(-c2ccc(Cl)c(Cl)c2)n(-c2ccc(NC(=O)CCl)cc2)n1
-0.069

Supply reported Z-AUC belonging to this compound: O=c1cc(N2CCOCC2)oc2c(-c3cccc4c3sc3ccccc34)cccc12
0.0636

Supply reported Z-AUC belonging to this compound: CN(C)Cc1cccc(N=C(c2ccccc2)c2c(O)[nH]c3cc(C(=O)N(C)C)ccc23)c1
-1.01

Supply reported Z-AUC belonging to this compound: CC(C)n1nc(-c2ccc3oc(N)nc3c2)c2c(N)ncnc21
-1.54

Supply reported Z-AUC belonging to this compound: CO[C@@H](C(=O)N1Cc2[nH]nc(NC(=O)c3ccc(N4CCN(C)CC4)cc3)c2C1)c1ccccc1
-0.117

====

Assay notes: qHTS of pediatric cancer cell lines to identify multiple opportunities for drug repurposing: Confirmatory screen for Rh41 cells (AID 1347123);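 also: 48 h compound exposure; nearly all actives have a fitted effect of over 60% in size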
Details: Rh41 rhabdomyosarcoma cells, viability/cytotoxicity qHTS; series mostly up to 45.9 µM
Results filed as inconclusive are left out. Active and inactive are the calls of the source. Calls come from the whole dose curve; as a rule, active = well fitted cell-killing curve with a large enough effect; inconclusive = small, poorly fitted or top-dose-only effect; inactive = no such curve, though single readings can be large or run the other way.
Outcome field: choose from TRUE for active, FALSE for inactive

Please indicate how the test categorized O=C1C(Cl)=C(NCCN2CCOCC2)C(=O)c2ncccc21 .
TRUE

Please indicate how the test categorized CC(=O)Oc1cc2c(s1)CCN(C(C(=O)C1CC1)c1ccccc1F)C2 (stereo not given) .
TRUE

Please indicate how the test categorized O=C1c2ccccc2-[n+]2ccc3c([nH]c4ccccc43)c21 .
TRUE

Please indicate how the test categorized OC[C@H]1O[C@@H](n2cnc3c2NC=NC[C@@H]3O)C[C@H]1O .
FALSE

Please indicate how the test categorized COc1cc(N2CCC(N3CCN(C)CC3)CC2)ccc1Nc1ncc(Cl)c(Nc2ccccc2S(=O)(=O)C(C)C)n1 .
TRUE

====

Target of assay: Cytochrome P450 3A4 (Homo sapiens)
Assay notes: qHTS Assay for Inhibitors and Substrates of Cytochrome P450 3A4 (AID 884); also: nearly all actives have a fitted effect of over 50% in size
Details: recombinant CYP3A4, Luciferin-PPXE luminescence; series mostly up to 57.1 µM
Inconclusive results are not listed. Activity calls are given as the source filed them. Calls follow the shape of the dose curve; as a rule, active = well fitted inhibition curve with a large enough effect; inconclusive = small, poorly fitted or top-dose-only effect; inactive = no such curve, though single readings can be large or run the other way.
Outcome field: choose from active, inactive

Please indicate how the test categorized COc1cccc(-c2cc(=O)c3ccccc3o2)c1N .
active

Please indicate how the test categorized CCCCCCCCCCCC1=C(O)C(=O)C=C(O)C1=O .
inactive

Please indicate how the test categorized CC(=O)c1ccc(S(=O)(=O)NC(=O)NC2CCCCC2)cc1 .
inactive

Please indicate how the test categorized c1cc(-c2sc(-c3ccncc3)c(-c3ccncc3)c2-c2ccncc2)ccn1 .
active

Please indicate how the test categorized COc1ccc(-c2coc3cc(O)cc(O)c3c2=O)cc1 .
active

Please indicate how the test categorized CC(=O)CCCCn1c(=O)c2c(ncn2C)n(C)c1=O .
inactive

Please indicate how the test categorized CC(C)OC(=O)C(C)(C)Oc1ccc(C(=O)c2ccc(Cl)cc2)cc1 .
inactive

Please indicate how the test categorized CC(=O)N[C@@H](CS)C(=O)O .
inactive

Please indicate how the test categorized O=C1C(Cl)=C(NCCN2CCOCC2)C(=O)c2ncccc21 .
active

Please indicate how the test categorized O=C(O)c1cc(O)c2c(c1)C(=O)c1cccc(O)c1C2=O .
inactive

Please indicate how the test categorized CCCNC(=O)NS(=O)(=O)c1ccc(Cl)cc1 .
inactive

Please indicate how the test categorized O=c1[nH]cnc2c1ncn2[C@H]1CC[C@@H](CO)O1 .
inactive

Where do these numbers come from? They come from PubChem BioAssay (NCATS).
